Answer each item with its documented z-score.
- Measurement Description: compound effects on hepatocellular carcinoma cell viability – HepG2, calcein-AM fluorescence, 48 h, basal, profiling panel (AID 1164)
- Measurement Context: higher = more signal
Output: the number by itself.

Measured z-score, COc1ccc(C(O)C2C=CC3C(=O)NC(=O)C3N2Nc2ccc(Cl)cc2Cl)c2ccccc12 (configuration not stated) : -2.36

Per the record, CCCCCC1=C2CNC(Cc3ccccc3)(C(=O)OC)C=C2C(C)C1=O (configuration not stated) has z-score of -1.14

// COc1ccc([Si](C)(C)[C@@H]2[C@@H](CC(=O)N(CCO)Cc3ccccc3)O[C@]3(C(=O)N(Cc4ccc(N5C(=O)c6cccc7cccc5c67)cc4)c4ccccc43)[C@H]2C)cc1 : z-score value = -1.43

Form field z-score, entry COC(=O)[C@@]1(Cc2ccc(F)cc2)[C@H]2c3cc(C(=O)N4CCCC4)n(CCc4ccccn4)c3C[C@H]2CN1C(=O)c1ccccc1 : 0.278

response.value for O=C1[C@H]2C=C(I)[C@H](C[C@@H]2OCCCCCCO)[C@@]12CO2 (field: z-score) = -0.394

The compound listed as C=C1C(=O)C=C2CN(C(=O)c3ccccc3)[C@@](Cc3ccc(OC)cc3)(C(=O)OC)[C@@H]12 has a reported z-score of -1.62

Briefly, z-score measured for C=CCC(OC(C)=O)[C@@H]1[C@@H](N(Cc2cc3ccccc3o2)C(=O)c2cccc3ccccc23)c2cc(OCCCO)ccc2N1C(=O)c1ccc2ccccc2n1 (some centres not stated) : 0.601

====

Kindly supply the reported composite z-score values for the records listed here.
- Tested on: XIP peptide (Xip251-270)
- Measurement Description: compounds binding XIP fragment 251-270 – biochemical, small-molecule microarray, fluorescence 635/667 nm, 0.5 µg/mL protein, primary screen (AID 1183)
- Measurement Context: fluorescence 635 nm, higher = more signal
The answer should be written as a number, with no unit following it.

Quick note, composite z-score for COC(=O)[C@@]1(Cc2ccc(F)cc2)[C@H]2c3cc(C(=O)N(C)C)n(C)c3C[C@H]2CN1C(=O)c1ccccc1 landed at -0.153

Item: CCCN1C(=O)[C@@]2(c3ccc([N+](=O)[O-])cc3)CC(=O)N(CC34CC5CC(CC(C5)C3)C4)[C@@H]2c2ccc(CO)cc21 | composite z-score: 0.483

The reported value for C=CCN1C(=O)[C@]2(O[C@H](CCn3cc([C@H](O)c4ccccc4)nn3)[C@@H]([Si](C)(C)c3ccc(OC)cc3)[C@@H]2C)c2cc(NC(=O)c3ccc(OC)cc3)ccc21 in terms of composite z-score is 0.309

====

- Measurement Description: COS7 lysate on small-molecule microarray, probe aHis, 635 nm (AID 1123);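 further: z-score combines 667nm fluorescence intensity with signal-to-noise per printed compound spot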
- Measurement Context: COS7 cell lysate, fluorescence, higher = more signal
Property Measured: composite z-score
// no unit, no text: just the number

The molecule listed as O=C1OCCC=C[C@H]2OC34C=CCN(c5ccc6ccccc6c5)C(=O)[C@H]3N(CCO)C(=O)[C@@H]4C12 (some centres not stated) has a reported composite z-score of -0.237

Lab book: composite z-score of COCCOC(=O)N1C(=O)[C@@]2(c3cc(C#CCC(C(=O)OC)C(=O)OC)ccc31)[C@H](C(=O)Nc1nc3ccccc3s1)[C@H]1C(=O)O[C@H](c3ccccc3)[C@H](c3ccccc3)N1[C@@H]2c1ccc(O)cc1 noted as 1.13

Query COc1ccc(C(=O)Nc2ccc(CN3C(=O)[C@@]4(O[C@@H](CCn5cc(CCO)nn5)[C@H]([Si](C)(C)c5ccc(OC)cc5)[C@H]4C)c4ccccc43)cc2)cc1 yields composite z-score of 0.822

// composite z-score lookup, molecule = CCOC(=O)C[C@H]1[C@H](OC(=O)c2cc3ccccc3oc2=O)[C@@H](NC(=O)CC(C)C)c2cc(OCCCO)ccc2N1C(=O)Cc1ccc(OC)cc1 , result: 0.935

For reference, reported composite z-score for COc1cc(C(O)C2C=CC3C(=O)N(c4ccccc4)C(=O)C3N2Nc2ccccc2)cc(OC)c1OC (configuration not stated) stands at 2.89

response.value for O=C1NC(=O)C2C1C=CC(C(O)c1ccc([N+](=O)[O-])cc1)N2Nc1ccccn1 (configuration not stated) (field: composite z-score) = 0.555

Form field composite z-score, entry CC[C@@H]1C=C(C(=O)O)[C@H](c2ccc(OC)cc2)N1S(=O)(=O)c1ccc(C)cc1 : 2.55
